Tested on: blood tripomastigote forms of different lines of Trypanosoma cruzi
Experiment: Tripanocidal activity: percentual of lysis of blood tripomastigote forms in infected mouse blood
Assay type: cell-based
Settings: Trypanosoma cruzi; lysis of blood tripomastigotes, 24 h at 4° C.; read-out: IC50
Checkbox rule: IC50 lower than 40 µg/mL = Yes; IC50 not lower than 40 µg/mL = No.

Example cases with answers are listed next.
1) CC(=O)OC1OC[C@H](Cc2ccc3c(c2)OCO3)[C@H]1Cc1ccc2c(c1)OCO2 (stereo partly shown): Yes
2) CN(C)c1ccc(C(=C2C=CC(=[N+](C)C)C=C2)c2ccc(N(C)C)cc2)cc1 [Gentian violet, gentian violet, reference compound]: No
3) OC1OC[C@H](Cc2ccc3c(c2)OCO3)[C@H]1Cc1ccc2c(c1)OCO2 (stereo partly shown): No
4) COC1OC[C@H](Cc2ccc3c(c2)OCO3)[C@H]1Cc1ccc2c(c1)OCO2 (stereo partly shown): No
5) O=C1OC[C@H](Cc2ccc3c(c2)OCO3)[C@H]1Cc1ccc2c(c1)OCO2: Yes
6) O=C1OC[C@H](Cc2cc3c(cc2[N+](=O)[O-])OCO3)[C@H]1Cc1cc2c(cc1[N+](=O)[O-])OCO2: Yes

Now examine the next entry.
IN: Is IC50 strictly under 40 µg/mL for the entry CN(C)CCOC1OC[C@H](Cc2ccc3c(c2)OCO3)[C@H]1Cc1ccc2c(c1)OCO2 (single isomer, unassigned; (-)) [O-dimethylethylamine cubebin, (−)-O-dimethylethylamine-cubebin] ?
OUT: Yes
